target: Mcl-1/Bim interaction, recombinant human Mcl-1 (171-327) (Homo sapiens); construct: made in house; experiment: Cell free Mcl-1: Bim Affinity Assay (Mcl-1 HTRF); assay type: binding; conditions: TR-FRET, 0.1 nM Mcl-1 (171-327), 0.05 nM biotin-Bim (51-76)
Sequence (Q07820 171-327): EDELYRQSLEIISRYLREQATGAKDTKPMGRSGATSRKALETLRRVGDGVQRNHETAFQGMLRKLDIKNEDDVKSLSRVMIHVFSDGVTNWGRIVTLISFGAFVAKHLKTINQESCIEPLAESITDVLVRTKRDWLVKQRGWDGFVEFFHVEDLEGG
pIC50: −log10 of the molar value.
measurement.type: pIC50

Example entries and their recorded answers appear below.
C[C@H]1C/C=C/[C@H](O)[C@@H]2CC[C@H]2CN2C[C@@]3(CCCc4cc(Cl)ccc43)COc3ccc(cc32)C(=O)NS(=O)(=O)N1C[C@H]1CCCO1 (single isomer, unassigned) | 9.10
CCC1CCC=CC(OC(C)C(N)=O)C2CCC2CN2CC3(CCCc4cc(Cl)ccc43)COc3ccc(cc32)C(=O)NS1(=O)=O (mixture of isomers) | 9.09
CC[C@@H]1CC/C=C/[C@H](OCc2nnnn2C)[C@@H]2CC[C@H]2CN2C[C@@]3(CCCc4cc(Cl)ccc43)COc3ccc(cc32)C(=O)NS1(=O)=O | 9.27
CCN(CC)S(=O)(=O)CCN1CC/C=C/[C@H](O)[C@@H]2CC[C@H]2CN2C[C@@]3(CCCc4cc(Cl)ccc43)COc3ccc(cc32)C(=O)NS1(=O)=O | 8.81

I: CC[C@@H]1CC/C=C/[C@H](OCc2cc(C)nn2C)[C@@H]2CC[C@H]2CN2C[C@@]3(CCCc4cc(Cl)ccc43)COc3ccc(cc32)C(=O)NS1(=O)=O
II: CO[C@H]1C[C@@H](N2[C@@H](C)C/C=C/[C@H](O)[C@@H]3CC[C@H]3CN3C[C@@]4(CCCc5cc(Cl)ccc54)COc4ccc(cc43)C(=O)NS2(=O)=O)C1
Input line: Record comparison, field pIC50: mark the lower of I and II . Refer to your chosen item by its label in the answer.
Output line: I
(I: 8.97, II: 9.23)
